Where do these numbers come from? They come from PubChem BioAssay (NCI).

Catalogue of compounds with associated growth
System: NCI-H522 lung
testDetails: NCI-60 one-dose screen, 48 h (100 = growth as untreated, 0 = no growth, -100 = all killed)
runConditions: 10 µM unless noted
The panel holds about 83,000 compounds, 20% with a hit somewhere; the sample as a whole holds those more often.
propertyMeasured: growth (%)

>>> result("COc1cc(OC)c2cc(C(=O)O)c(=O)oc2c1")
97.3
>>> result("CCCCCCCCCCCCCCCCCc1nccn1CCO")
52.6
>>> result("CCC(C)CC(C)C(=O)c1c(O)ccn(OC)c1=O (centres undefined)")
90.9
>>> result("CN(C)c1cccc2c(S(=O)(=O)N[C@H]3CC[C@H]4[C@@H]5CCc6cc(O)ccc6[C@H]5CC[C@]34C)cccc12")
-10.5
>>> result("CSc1nc2c(c(=O)n1C)C(c1ccccc1)C1=C(N2)/C(=C/c2ccccc2)CCC1 (centres undefined)")
24.5
>>> result("COc1cc(/C=C/C(=O)Nc2cccnc2Nc2cc(OC)c(OC)c(OC)c2)cc(OC)c1OC")
87.6
>>> result("Clc1ncn[nH]1")
94.9
>>> result("O=C(O)c1ccc(NC(=O)c2cccc(Nc3ccnc(C(F)(F)F)c3)c2)cc1")
87
>>> result("Cc1cc(NCCCNc2ccnc3cc(Cl)ccc23)nc(N2CCN(C)CC2)n1")
4.29
>>> result("CC1=C(C(=O)Nc2ccccc2)C(c2ccc3c(c2)OCCO3)NC(=O)N1 (centres undefined)")
104
>>> result("COc1ccc(OC)c(/C=C/c2nc(=S)n(-c3ccc(Cl)cc3)[nH]2)c1")
82.1
>>> result("Oc1ccc(Cc2ccc(O)c(C3CC(c4ccc(Cl)cc4)=NN3)c2)cc1C1CC(c2ccc(Cl)cc2)=NN1 (centres undefined)")
-6.56
>>> result("CC1CC(C)/C(=N/NC(N)=O)C(C(O)CC2CCC(=O)NC2=O)C1 (centres undefined)")
18
>>> result("Clc1ccc([C@@H]2C[C@@H]3Cc4cc(Br)c5ccccc5c4N2O3)c(Cl)c1")
43.8
>>> result("CCOC(=O)c1c(C)c(C(=O)OCC)n(C)c1C")
102
>>> result("COc1ccc(-c2nn(-c3ccccc3)cc2/C=C2\\SC(=S)N(CCc3ccc(O)cc3)C2=O)cc1")
64.7
>>> result("CCCCCCCCCCC[C@@H](C[C@H]1OC(=O)[C@H]1CCCCCC)OC(=O)[C@@H](CC(C)C)NC=O")
59.9
>>> result("N#Cc1cnc2cc(OC[C@H](O)CO)c(NC(=O)CC3CSSC3)cc2c1Nc1ccc(OCc2cccc(F)c2)c(Cl)c1")
-68.3
>>> result("C[n+]1c2ccccc2c(Nc2ccc(N3CCCCC3)cc2)c2[nH]c3ccccc3c21")
-96.5
>>> result("COc1cc2c(cc1OCCCCCn1c(-c3ccc(OCc4ccccc4)cc3)nc3cc(N4CCOCC4)ccc31)N=C[C@@H]1CCCN1C2=O")
-4.59
>>> result("COc1cccc2c1C(=O)c1c(O)c3c(c(O)c1C2=O)C[C@@](O)(/C(C)=N/NC(=O)c1cccc([N+](=O)[O-])c1)C[C@@H]3OC1CC(N)C(O)C(C)O1 (some centres undefined)")
-61
>>> result("O=C(C(=O)N1CCCCC1)c1ccc(OC2OC(CO)C(O)C(O)C2O)cc1 (centres undefined)")
85.3
>>> result("O=C(c1nn(-c2ccc(Cl)cc2)cc1O)n1nc(C(F)(F)F)cc1-c1ccccc1")
21.2
>>> result("COc1ccc(-c2cnnn2-c2cc(OC)c3c(c2)OCO3)cc1")
-45.2
